Tested on: OVCAR-3 ovarian
Test description: NCI-60 one-dose screen, 48 h (100 = growth as untreated, 0 = no growth, -100 = all killed)
Measurement context: 10 µM unless noted
About 83,000 compounds went through this panel and 20% of them were active in at least one assay; those are over-represented in the sample as a whole.
Measurement name: growth (%)
The reply should be a number in %, with the unit left off.

Form: compound = O=C(c1c[nH]c2ccccc12)c1n[nH]c(=S)n1-c1cccc(Br)c1 ; growth = 86.4

Form: compound = COc1ccc(-c2nc3c(N)c(CO)cnc3s2)cc1 ; growth = 89.4

Form: compound = Cn1c2c(c3ccc(Cl)c(Cl)c31)C(C#N)C(C)(C)NC2=O (stereo not given) ; growth = 71.3

Form: compound = CCNC(=O)Oc1ccc(/C(=C(/CC)Cc2ccccc2)c2ccc(OCCN3CCCC3)cc2)cc1 ; growth = 96.9

Form: compound = COc1ccc2[nH]cc(-c3nc(-c4c[nH]c5c(Cl)nccc45)cs3)c2c1 ; growth = 75.9

Form: compound = COc1ccc(C(=O)/C=C/c2ccc(N3CCCCC3)cc2)cc1OC ; growth = 104

Form: compound = COC(=O)CC[C@@H]1O[C@@H](c2ccc(F)cc2)[C@@H](O)[C@H]1O ; growth = 104

Form: compound = COc1cccc(CCNc2ncnc3c2ncn3Cc2nnc3c4ccccc4c(Cl)nn23)c1 ; growth = 64

Form: compound = CCCCNc1cc(-c2cn[nH]c2-c2cc(C)cc(OC)c2)nc(-c2cccnc2)n1 ; growth = 98.8

Form: compound = Cc1ccc(CNc2ccc3nc(CCC(C)C)[nH]c3c2)cc1 ; growth = 88.9

###

System: HS 578T breast
Test description: NCI-60 one-dose screen, 48 h (100 = growth as untreated, 0 = no growth, -100 = all killed)
Measurement context: 10 µM unless noted
This is part of a sample that, as a whole, favours compounds with a hit. Of some 83,000 tested, about 20% had one in any assay.
Exercise: for every item that follows, state its recorded growth.
The reply should be a number in %, with the unit left off.

Form: molecule = CCN(CC)c1ccc(CNc2cc(C)nc3ccccc23)cc1 ; growth = 85.6

Form: molecule = Oc1c(CN2CCOCC2)cc(COCc2ccccc2)c2cccnc12 ; growth = 68.4

Form: molecule = O=C1Nc2ccccc2/C1=C/c1cccn1C(=O)c1ccc(Cl)s1 ; growth = 70.8

Form: molecule = CC1=CCC(OC(=O)C(C)(C)CC(O)(C(C)O)C(O)C2(C)C=CC(Cc3ccc(C(C)C)cc3)(C(C)C)CC2)(C(C)C)CC1 (stereo not given) ; growth = 101

Form: molecule = O=C(CCCCCNC(=O)c1cc(=O)c(O)co1)Nc1ccccc1 ; growth = 108

Form: molecule = Cc1ccc2c(-n3nc(C#N)c(C#N)c3N)cc(=O)[nH]c2c1 ; growth = 107

Form: molecule = COc1cc(-c2nc3cc(Cl)c(Cl)cc3[nH]2)ccc1OCC(=O)N=Nc1c(O)[nH]c2ccc(Cl)cc12 ; growth = -14

Form: molecule = COc1ccc(/C(C)=C(/c2ccc(OCCCN(C)C)cc2)c2ccc(OC(=O)c3ccccc3)cc2)cc1 ; growth = 55.4

Form: molecule = CCOc1cccc(/C=N/NC(=O)c2cccc(Nc3ccnc(C(F)(F)F)c3)c2)c1O ; growth = 43.7

Form: molecule = CC(=O)c1sc2sc(C(C)=O)c(C)c2c1C ; growth = 92

###

Test system: COLO 205 colon
Test description: NCI-60 one-dose screen, 48 h
Measurement context: 10 µM unless noted
The panel holds about 83,000 compounds, 20% with a hit somewhere; the sample as a whole holds those more often. Calls of active or inactive are those of the source. The calls were made as follows: active = growth percent below 10; inactive = the rest.
Bench note: report the call from label 1 (active), label 0 (inactive)

Test call, this compound: O=C(NNC(=O)c1ccc(NC(=O)c2ccccn2)cc1)Nc1ccc2ccccc2c1
label 0

Test call, this compound: O=C(NNC(=O)c1nc2cc(F)ccc2n2cccc12)c1cnccn1
label 0

Test call, this compound: CCN(CC)CCCN1C(=O)c2c(c(C)c3c(oc4ccc(O)cc43)c2C)C1=O
label 0

Test call, this compound: CCCCNc1cc(-c2cn[nH]c2-c2cc(C)cc(OC)c2)nc(-c2cccnc2)n1
label 0

Test call, this compound: C=C(C)[C@@H]1CC[C@]2(C)[C@H](CC=C3[C@@H]4CC(C)(C)CC[C@]4(CO)CC[C@]32C)[C@@]1(C)CCCN
label 1

Test call, this compound: CCN1CCN(CC(=O)Nc2ccc(-c3cn4c(n3)sc3cc(Oc5ccnc(C(=O)NC)c5)ccc34)cc2)CC1
label 0

Test call, this compound: O=C(C1CCCCC1)[C@@H]1[C@]2(C(=O)NC3CCCCC32)[C@@H]2CCCN2[C@@]12C(=O)NC1CCC(Cl)CC12 (some centres not stated)
label 1

Test call, this compound: O=S(=O)(Nc1cc(Sc2cccc3cccnc23)c(O)c2ccccc12)c1ccccc1
label 1

Test call, this compound: O=C1Nc2c(C(=O)O)cccc2/C1=N/c1n[nH]c(=S)s1
label 0

Test call, this compound: CO[C@H](C(=O)[C@@H](O)[C@@H](C)O)[C@@H]1Cc2cc3cc(O[C@H]4C[C@@H](O[C@H]5C[C@@H](O)[C@H](O)C(C)O5)[C@H](O)C(C)(O)O4)cc(O)c3c(O)c2C(=O)[C@H]1O[C@H]1C[C@@H](O[C@H]2C[C@@H](O[C@H]3C[C@@H](OC)[C@H](O)C(C)O3)[C@@H](O)C(C)O2)[C@H](O)C(C)O1 (some centres not stated)
label 1

Test call, this compound: Cc1nc2c(=O)nc3s/c(=C\c4ccco4)c(=O)n3c2nc1C
label 0

Test call, this compound: CCOC(=O)c1ccccc1-c1c2ccc(=[N+](C)C)cc-2oc2cc(N(C)C)ccc12
label 1

Test call, this compound: CC1=C2[C@@H](CC1)[C@]1(C)O[C@@](C3CCCCC3)(C[C@H]1OC(=O)CO)[C@H]2OC(=O)/C=C/c1ccccc1
label 0

Test call, this compound: COC(=O)CCC/C=C\C[C@H]1C=CC(=O)/C1=C/C[C@@H](O)C/C=C\CC(F)(F)F
label 1

Test call, this compound: COc1cc(-c2nc3sccn3c2-c2ccnc(NCCNS(=O)(=O)c3ccc(Cl)cc3)n2)ccc1F
label 0

Test call, this compound: O=C(CCCCCNC(=O)c1cc(=O)c(O)co1)Nc1ccccc1
label 0

Test call, this compound: COc1ccc(C#Cc2ccc(=O)oc2-c2cc(OC)c(OC)c(OC)c2)cc1O
label 0

###

System: OVCAR-3 ovarian
Test description: NCI-60 one-dose screen, 48 h (100 = growth as untreated, 0 = no growth, -100 = all killed)
Measurement context: 10 µM unless noted
About 83,000 compounds went through this panel and 20% of them were active in at least one assay; those are over-represented in the sample as a whole.
Measurement name: growth (%)
The reply should be a number in %, with the unit left off.

Form: molecule = Cc1ccc(-c2nc(N3CCNCC3)c3oc(-c4ccc(C)cc4)nc3n2)cc1 ; growth = -94.6

Form: molecule = CCn1c(-c2cc3c([nH]c4ccccc43)c(-c3cccc(O)c3)n2)n[nH]c1=S ; growth = 28.9

Form: molecule = O=S1(=O)C=C(c2ccccc2)C(c2ccccc2)=C1 ; growth = -86

Form: molecule = O=C(Nc1ccc(Br)cc1)C1=NCCCCN1 ; growth = 103

Form: molecule = O=C(O)/C=C/C(=O)Nc1cccc(Cn2nnc3cc(Cl)c(Cl)cc32)c1 ; growth = 101

Form: molecule = O=C(Cn1nnc2ccccc21)N/N=C/c1c[nH]c2ccccc12 ; growth = 22.4

Form: molecule = CN1CCN(C(=O)C(C)(C)c2ccc(C(=O)Nc3cn4cc(-c5ccncc5)ccc4n3)cc2)CC1 ; growth = -37.4

Form: molecule = CCN(CC)CCN1C(=O)c2c(c(C)c3c(oc4ccc(O)cc43)c2C)C1=O ; growth = -68.2

Form: molecule = CC[C@]12C=CCN3CC[C@@]4(c5ccc(OC)cc5N(C)[C@H]4[C@@](O)(C(=O)OC)[C@@H]1OC(=O)CCC[P+](c1ccccc1)(c1ccccc1)c1ccccc1)[C@@H]32 ; growth = -2.49

###

System: DU-145 prostate
Test description: NCI-60 one-dose screen, 48 h
Measurement context: 10 µM unless noted
The panel holds about 83,000 compounds, 20% with a hit somewhere; the sample as a whole holds those more often. The source made the active and inactive calls. How the source made its calls: active means growth percent below 10; inactive means the rest.
Bench note: report the call from active, inactive

Test call, this compound: Cc1ccc(-c2nc(-c3cn(C)c4ncccc34)cs2)cc1
active

Test call, this compound: C=C1C(=O)O[C@H]2[C@H]1CC/C(COC(=O)c1ccc(C(=O)O)s1)=C\CC[C@@]1(C)O[C@@H]21
inactive

Test call, this compound: CN(Cc1cnc2nc(N)nc(N)c2n1)c1ccc(C(=O)NC(CCC(=O)O)C(=O)O)cc1Br (centres undefined)
inactive

Test call, this compound: Clc1ccc(-c2cc(-c3ccccc3)nc(NCCNc3ccnc4cc(Cl)ccc34)n2)cc1
inactive

Test call, this compound: S=c1nc2oc(-c3ccccc3)c(-c3ccccc3)c2c(/N=C\c2ccco2)[nH]1
inactive

Test call, this compound: O=C(Nc1ccccc1[N+](=O)[O-])c1ccc(Cl)c(Cl)c1
inactive

Test call, this compound: C=C(c1ccc(OC)c(/C=C/C(=O)c2ccc3c(c2)OCO3)c1)c1cc(OC)c(OC)c(OC)c1
active

Test call, this compound: CCCCNC(=O)Oc1ccc(/C(=C(/C)Cc2ccc(OC)cc2)c2ccc(OCCN3CCCCC3)cc2)cc1
inactive

Test call, this compound: C=C(CNCCc1ccc(O)cc1)[C@@H]1CC[C@]2(CO)CC[C@]3(C)[C@H](CC[C@@H]4[C@@]5(C)CCC(=O)C(C)(C)[C@@H]5CC[C@]43C)[C@@H]12
inactive

Every entry's value here was drawn from PubChem BioAssay (NCI).
